- method.notes: ABTS free radical scavenging assay
- condition.summary: 150 µM, 5 min
measure: % of ABTS• reduction ± SD (%)
The figure you give is taken to be in %; do not add the unit.

For O=c1[nH]c2c(OCCNCCC3CCN(Cc4ccccc4)CC3)cccc2n1Cc1ccccc1 , write its % of ABTS• reduction ± SD. 13

For O=c1[nH]c2c(OCCNCC3CCN(Cc4ccccc4)CC3)cccc2n1Cc1ccccc1 , write its % of ABTS• reduction ± SD. 19

For O=S(=O)(c1ccccc1)n1ccc2c(OCCNCCC3CCN(Cc4ccccc4)CC3)cccc21 , write its % of ABTS• reduction ± SD. 20

For O=c1[nH]c2c(OCCNCCCC3CCN(Cc4ccccc4)CC3)cccc2n1Cc1ccccc1 , write its % of ABTS• reduction ± SD. 25
